Data provenance is patent US20250122225A1.

Measured pKi on UniProtKB P00734 follows.
pKi: −log10 of the molar value. Structures can show the parent of a compound that is named as a salt.

Look over these answered cases.
{"columns": ["compound", "result"],
 "data": [
  ["C[C@@H](CNc1ncc2n(c1=O)[C@H](C(=O)NCc1cc3c(s1)CNC3)CC2)c1ccccc1 [Compound 276, trifluoroacetate]", "> 6.30"],
  ["Cc1nc(N)ccc1CNC(=O)[C@@H]1CCc2cnc(NCc3cnn(-c4ccccc4)c3)c(=O)n21 [Compound 166, trifluoroacetate]", "5.60 to 6.30"]
]}

Ask: // lookup pKi for Cc1nc(N)ccc1CNC(=O)[C@@H]1CCc2cnc(NCc3cccc(-c4ccccc4)c3)c(=O)n21 [Compound 220, trifluoroacetate]
Result: > 6.30

Ask: Another compound to check: CC1(C)C[C@@H](C(=O)NCc2cc3cnccc3[nH]2)n2c1c(Cl)nc(NCc1ccccc1)c2=O [Compound 229, trifluoroacetate]
Result: 5.00 to 5.60

Ask: Another compound to check: `O=C(NCc1cc2cnccc2[nH]1)[C@@H]1CCc2c(Cl)nc(NCCc3ccccc3)c(=O)n21`
Result: 5.60 to 6.30

Ask: Another compound to check: `O=C(NCc1cc2cnccc2[nH]1)[C@@H]1CC2(CC2)c2c(Cl)nc(NCc3ccccc3)c(=O)n21`
Result: 5.00 to 5.60

Ask: Another compound to check: `O=C(NCc1cc2c(s1)CNC2)[C@@H]1CCc2c(Cl)nc(NCCc3ccccc3)c(=O)n21`
Result: > 6.30

----------
biological target: MASP-2 (CCP1-CCP2-SP) (Homo sapiens)
Sequence (O00187 445-686 limits assumed): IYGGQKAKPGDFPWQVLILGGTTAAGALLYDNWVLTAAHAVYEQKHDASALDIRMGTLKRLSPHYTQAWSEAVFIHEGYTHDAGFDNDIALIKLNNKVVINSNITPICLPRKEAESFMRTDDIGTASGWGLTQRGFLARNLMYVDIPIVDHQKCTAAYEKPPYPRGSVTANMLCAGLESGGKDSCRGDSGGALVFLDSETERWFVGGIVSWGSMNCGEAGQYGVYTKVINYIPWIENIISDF
Sequence (O00187 287-444 partner limits assumed): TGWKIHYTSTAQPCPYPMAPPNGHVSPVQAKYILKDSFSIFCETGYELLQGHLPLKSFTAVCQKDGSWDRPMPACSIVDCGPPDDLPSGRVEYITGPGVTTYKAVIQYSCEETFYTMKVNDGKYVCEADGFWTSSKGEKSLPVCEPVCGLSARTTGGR
pKi: −log10 of the molar value. Where a name gives a salt, the structure may show the parent alone.
Entries and their measured pKi follow.

Look over these answered cases.
{"columns": ["compound", "pKi"],
 "data": [
  ["N=C(N)c1ccc(CNC(=O)[C@@H]2CCc3c(Cl)nc(NCCc4ccccc4)c(=O)n32)cc1 [Compound 250]", "5.60 to 6.30"],
  ["O=C(NCc1cc2cnccc2[nH]1)[C@@H]1CCc2c(Cl)nc(NCc3cccc(-c4ccccc4)c3)c(=O)n21 [Compound 143]", "> 6.30"],
  ["Cc1ccc(CNc2nc(Cl)c3n(c2=O)[C@H](C(=O)NCc2ccc(N)nc2C)CC3)cc1C [Compound 27, trifluoroacetate]", "> 6.30"],
  ["Cc1cc(F)cc(CNc2nc(C3CCCCC3)c3n(c2=O)[C@H](C(=O)NCc2cc4cnccc4[nH]2)CC3)c1 [Compound 177, trifluoroacetate]", "> 6.30"],
  ["Cc1cc(F)cc(CNc2ncc3n(c2=O)[C@H](C(=O)N[C@H](C)c2ccc(N)nc2)CC3)c1 [Compound 191, trifluoroacetate]", "> 6.30"]
]}

Ask: Lab note: need pKi for O=C(NCc1cc2cnccc2[nH]1)[C@@H]1CCc2c(Cl)nc(NCC3CCOCC3)c(=O)n21 [Compound 101, trifluoroacetate] on MASP-2 (CCP1-CCP2-SP) (Homo sapiens), anyone have it?
Result: > 6.30

Ask: Another compound to check: Cc1ccc(F)c(CNc2ncc3n(c2=O)[C@H](C(=O)NCc2ccc(N)nc2C)CC3)c1 [Compound 77]
Result: > 6.30

----------
Measured Ki on UniProt O00187 follows.
Structures can show the parent of a compound that is named as a salt.

Look over these answered cases.
{"columns": ["molecule", "quantity_kind", "result"],
 "data": [
  ["C[C@@H](NC(=O)[C@@H]1CCc2cnc(N[C@@H](c3ccccc3)C(C)(C)C)c(=O)n21)c1cc2c(s1)CNC2 [Compound 269, trifluoroacetate]", "Ki", "< 500 nM"],
  ["COc1cc(C)cc(CNc2ncc3n(c2=O)[C@H](C(=O)NCc2ccc(N)nc2C)C[C@@H]3Cc2ccccc2)c1 [Compound 138]", "Ki", "< 500 nM"],
  ["Cc1cc(F)cc(CNc2ncc3n(c2=O)[C@H](C(=O)NCc2cnc(N)c(C)c2)CC3)c1 [Compound 213, trifluoroacetate]", "Ki", "< 500 nM"],
  ["Cc1cc(C)cc(CNc2ncc3n(c2=O)[C@H](C(=O)NCc2cc4cnccc4[nH]2)C[C@@H]3C)c1 [Compound 153]", "Ki", "< 500 nM"],
  ["O=C(NCc1cc2c(s1)CNC2)[C@@H]1CCc2cnc(N[C@@H]3CCc4ccc(-c5ccccc5)cc43)c(=O)n21 [Compound 260, trifluoroacetate]", "Ki", "< 500 nM"]
]}

As a next step, examine the molecule that follows.
Ask: // lookup Ki for Cc1cc(C)cc(CNc2ncc3n(c2=O)[C@H](C(=O)NCc2ccccn2)CC3)c1 [Compound 40, trifluoroacetate]
Result: 10000 to 25000 nM
